# Assayed System: chicken gizzard smooth muscle myosin subfragment-1 chemically crosslinked to cardiac or skeletal actin (Gallus gallus, UniProt P10587)
# Sequence (P02607 2-151): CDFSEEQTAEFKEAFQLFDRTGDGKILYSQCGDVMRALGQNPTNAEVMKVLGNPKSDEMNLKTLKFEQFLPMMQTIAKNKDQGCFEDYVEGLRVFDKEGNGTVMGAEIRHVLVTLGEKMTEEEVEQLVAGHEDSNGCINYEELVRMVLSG
# Sequence (P10587 84-789): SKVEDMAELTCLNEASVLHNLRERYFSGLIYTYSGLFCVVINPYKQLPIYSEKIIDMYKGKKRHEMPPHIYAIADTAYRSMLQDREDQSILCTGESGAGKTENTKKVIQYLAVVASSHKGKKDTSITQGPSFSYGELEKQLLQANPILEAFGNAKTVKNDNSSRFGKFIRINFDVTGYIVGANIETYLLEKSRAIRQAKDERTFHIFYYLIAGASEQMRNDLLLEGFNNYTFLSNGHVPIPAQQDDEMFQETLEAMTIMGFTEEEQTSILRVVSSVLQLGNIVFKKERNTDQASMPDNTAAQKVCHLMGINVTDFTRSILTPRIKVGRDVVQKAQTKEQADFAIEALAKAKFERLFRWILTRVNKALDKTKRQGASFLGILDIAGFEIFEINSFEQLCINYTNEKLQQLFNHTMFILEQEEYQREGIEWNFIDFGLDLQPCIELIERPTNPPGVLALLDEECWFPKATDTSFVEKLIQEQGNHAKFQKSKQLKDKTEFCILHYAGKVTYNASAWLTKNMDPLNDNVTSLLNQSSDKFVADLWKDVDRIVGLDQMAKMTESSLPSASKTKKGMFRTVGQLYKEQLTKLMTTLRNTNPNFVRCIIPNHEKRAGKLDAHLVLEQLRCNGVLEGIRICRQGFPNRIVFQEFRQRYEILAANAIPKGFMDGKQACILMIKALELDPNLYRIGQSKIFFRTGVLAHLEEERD
Measurement Name: IC50 (nM)

For orientation, consider the following solved cases.
For the molecule N#Cc1ccccc1-c1ccc(C(=O)NC[C@H]2CN(CCN)CC(=O)N2)c(NCCc2cccc(F)c2)n1 , what IC50 is on record? 623

Here is the next molecule: N#Cc1ccccc1-c1ccc(C(=O)N[C@@H]2CCCNC2=O)c(NCCc2cccc(F)c2)n1 352

Here is the next molecule: N#Cc1ccccc1-c1ccc(C(=O)NCC2CCCNC2=O)c(NCCc2cccc(F)c2)n1 (centres unmarked) 14

P: C[C@H](CNC(=O)c1cc(F)c(-c2cn[nH]c2)nc1NCC(O)c1cccc(F)c1)NC(=O)CNC(=O)OC(C)(C)C (some centres unmarked)
Q: COCCN[C@H](C)CNC(=O)c1cc(F)c(-c2cnn(C)c2)nc1NCCc1cccc(F)c1
R: N#Cc1ccccc1-c1ccc(C(=O)NC[C@H]2CCC(=O)N2CCCCN2C(=O)c3ccccc3C2=O)c(NCCc2cccc(F)c2)n1
S: O=C(NCc1cccnc1)c1ccc(-c2ccccc2)nc1NCCc1cc(F)cc(F)c1
T: CN(CCNC(=O)c1ccc(-c2ccccc2C#N)nc1NCCc1cccc(F)c1)C(=O)CN
Form: Sort by [IC50] Order [ ascending ] Field: ranking. Enter the labels in the order requested. S, R, T, Q, P

I: O=C(NCc1cccnc1)c1ccc(-c2ccccc2O)nc1NCCc1ccccn1
II: CN(CCNC(=O)c1ccc(-c2ccccc2C#N)nc1NCCc1cccc(F)c1)C(=O)CCCNC(=O)OC(C)(C)C
III: O=C1CNCC(CNC(=O)c2ccc(-c3cn[nH]c3)nc2NCCc2cccc(F)c2)N1 (centres unmarked)
IV: N#Cc1ccccc1-c1ccc(C(=O)NCC2CCN(CCCN)C2=O)c(NCCc2cccc(F)c2)n1 (centres unmarked)
List from greatest to least IC50. Field: ranking. Enter the labels in the order requested. II, I, III, IV
(II: 3880 nM, I: 2170 nM, III: 973 nM, IV: 382 nM)

1: CC(C)(C)OC(=O)NCCCN1C(=O)CC[C@H]1CNC(=O)c1ccc(-c2ccccc2C#N)nc1NCCc1cccc(F)c1
2: N#Cc1ccccc1-c1ccc(C(=O)NC[C@H]2CCCCN2S(=O)(=O)CCN)c(NCCc2cccc(F)c2)n1
3: O=C(NCc1cccnc1)c1ccc(-c2ccc(F)c(F)c2)nc1NCCc1ccccn1
Form: Sort by [IC50] Order [ ascending ] Field: ranking. Enter the labels in the order requested. 2, 3, 1
(2: 178 nM, 3: 1210 nM, 1: 4520 nM)

a: N#Cc1ccccc1-c1ccc(C(=O)N[C@H]2CCNC2=O)c(NCCc2cccc(F)c2)n1
b: Cc1cc(C(=O)NC[C@H]2CCC(=O)N2CCCNC(=O)OC(C)(C)C)c(NCCc2cccc(F)c2)nc1-c1ccccc1C#N
Given a and b , report the one with the higher recorded IC50. Lab note: record the label of whichever item you select. b

====

# Assayed System: chicken gizzard smooth muscle myosin subfragment-1 chemically crosslinked to cardiac or skeletal actin (Gallus gallus, UniProt P10587)
Measurement Name: IC50 (nM)

For the molecule O=C(NC[C@H]1CCN1C(=O)CO)c1ccc(-c2cn[nH]c2)nc1NCCc1cccc(F)c1 , what IC50 is on record? 559

Here is the next molecule: NCc1ncccc1CNC(=O)c1cc(F)c(-c2cn[nH]c2)nc1NCCc1cccc(F)c1 12

Here is the next molecule: C[C@H](CNC(=O)c1ccc(-c2ccccc2C#N)nc1NCCc1cccc(F)c1)NC(=O)CCCNC(=O)OC(C)(C)C 49

Here is the next molecule: COC[C@H](N)C(=O)N1CCC[C@@H]1CNC(=O)c1ccc(-c2ccccc2C#N)nc1NCCc1cccc(F)c1 193

P: N#Cc1ccccc1-c1ccc(C(=O)NCc2cccnc2)c(NCCc2ccccc2O)n1
Q: N#Cc1ccccc1-c1ccc(C(=O)NC[C@H]2CCN2C(=O)CN)c(NCCc2cccc(F)c2)n1
Given P and Q , report the one with the higher recorded IC50. Lab note: record the label of whichever item you select. P
(P: 380 nM, Q: 44 nM)

a: NCc1ncccc1CNC(=O)c1ccc(-c2cn[nH]c2)nc1NCCc1ccccn1
b: NC(=O)CNC(=O)c1cc(F)c(-c2cn[nH]c2)nc1NCCc1cccc(F)c1
c: COC(=O)CCC(=O)N1CCC[C@@H]1CNC(=O)c1ccc(-c2cnn(C)c2)nc1NCCc1cccc(F)c1
d: CNC(=O)CNC(=O)c1ccc(-c2ccc(CO)s2)nc1NCCc1cccc(F)c1
Form: Sort by [IC50] Order [ ascending ] Field: ranking. Enter the labels in the order requested. b, d, a, c

A: O=C(NCc1cccnc1)c1ccc(-c2ccccc2)nc1NCCc1cccnc1
B: Cc1cc(C)cc(-c2ccc(C(=O)NCc3cccnc3)c(NCCc3ccccn3)n2)c1
Given A and B , report the one with the higher recorded IC50. Lab note: record the label of whichever item you select. B
(B: 10100 nM, A: 2190 nM)

P: COC(=O)CNC(=O)c1ccc(-c2ccccc2)nc1NCCc1ccccc1
Q: COC(=O)N1CC[C@@H]1CNC(=O)c1ccc(-c2cn[nH]c2)nc1NCCc1cccc(F)c1
R: CC(C)(C)OC(=O)N1CCC[C@@H]1CNC(=O)c1ccc(-c2cn[nH]c2)nc1NCCc1cccc(F)c1
S: NCCNc1cccc(CNC(=O)c2ccc(-c3cn[nH]c3)nc2NCCc2cccc(F)c2)n1
Form: Sort by [IC50] Order [ ascending ] Field: ranking. Enter the labels in the order requested. S, Q, P, R
(S: 20 nM, Q: 245 nM, P: 1340 nM, R: 3170 nM)

====

# Assayed System: chicken gizzard smooth muscle myosin subfragment-1 chemically crosslinked to cardiac or skeletal actin (Gallus gallus)
Measurement Name: IC50 (nM)

For the molecule COC(=O)[C@H](C)CNC(=O)c1cc(F)c(-c2cn[nH]c2)nc1NCCc1cccc(F)c1 , what IC50 is on record? 73

Here is the next molecule: O=C(NCc1cccnc1)c1cc2c(nc1NCCc1cccc(F)c1)-c1ccccc1C2=O 88

Here is the next molecule: C[C@H](N)C(=O)N1CCC[C@@H]1CNC(=O)c1cc(F)c(-c2cnn(C)c2)nc1NCCc1cccc(F)c1 99

====

# Assayed System: chicken gizzard smooth muscle myosin subfragment-1 chemically crosslinked to cardiac or skeletal actin (Gallus gallus, UniProt P10587)
pIC50: −log10 of the molar value.
Measurement Name: pIC50

P: CC(C)C[C@@H](N)CNC(=O)c1ccc(-c2ccccc2C#N)nc1NCCc1cccc(F)c1
Q: CC(C)(C)OC(=O)NCCCC(=O)N1CCC[C@@H]1CNC(=O)c1cc(F)c(-c2cn[nH]c2)nc1NCCc1cccc(F)c1
Given P and Q , report the one with the higher recorded pIC50. Lab note: record the label of whichever item you select. Q
(Q: 6.12, P: 5.91)

====

# Assayed System: chicken gizzard smooth muscle myosin subfragment-1 chemically crosslinked to cardiac or skeletal actin (Gallus gallus, UniProt P10587)
pIC50: −log10 of the molar value.
Measurement Name: pIC50

For orientation, consider the following solved cases.
For the molecule O=C(NCc1cccnc1)c1ccc(-c2cccs2)nc1NCCc1cccc(F)c1 , what pIC50 is on record? 6.86

Here is the next molecule: Cn1cc(-c2ccc(C(=O)NCc3cccc(CN)n3)c(NCCc3cccc(F)c3)n2)cn1 6.87

Here is the next molecule: NCCC(=O)N1CCC[C@@H]1CNC(=O)c1cc(F)c(-c2cn[nH]c2)nc1NCCc1cccc(F)c1 7.05

Here is the next molecule: O=C(NCc1cccnc1)c1cc(C(=O)NCc2cccnc2)c(-c2ccccc2)nc1NCCc1cccc(F)c1 4.25

1: CC(C)(C)OC(=O)N1CCC[C@@H]1CNC(=O)c1cc(F)c(-c2ccccc2C#N)nc1NCCc1cccc(F)c1
2: NCCCN1C(=O)CNC[C@@H]1CNC(=O)c1ccc(-c2cn[nH]c2)nc1NCCc1cccc(F)c1
3: Cn1cc(-c2nc(NCCc3cccc(F)c3)c(C(=O)NC[C@H]3CCN3C(=O)COC(=O)CN)cc2F)cn1
4: N#Cc1ccccc1-c1ccc(C(=O)NC[C@H]2CCC(=O)N2CCN)c(NCCc2cccc(F)c2)n1
List from greatest to least pIC50. Field: ranking. Enter the labels in the order requested. 3, 4, 2, 1

====

# Assayed System: chicken gizzard smooth muscle myosin subfragment-1 chemically crosslinked to cardiac or skeletal actin (Gallus gallus)
Measurement Name: IC50 (nM)

For orientation, consider the following solved cases.
For the compound CN(C)C(=NCc1cccc(CNC(=O)c2ccc(-c3ccccc3C#N)nc2NCCc2cccc(F)c2)n1)N(C)C , what IC50 is on record? 285

Here is the next compound: NCC(=O)N1CCC[C@@H]1CNC(=O)c1cc(F)c(-c2cn[nH]c2)nc1NCCc1cccc(F)c1 61

1: CNC(=O)[C@H](C)CNC(=O)c1cc(F)c(-c2cnn(C)c2)nc1NCCc1cccc(F)c1
2: N#Cc1ccccc1-c1ccc(C(=O)NCc2ccccn2)c(NCCc2cccc(F)c2)n1
Given 1 and 2 , report the one with the higher recorded IC50. Lab note: record the label of whichever item you select. 1
(1: 130 nM, 2: 29 nM)

I: C[C@@H](CN=[N+]=[N-])CNC(=O)c1cc(F)c(-c2cnn(C)c2)nc1NCCc1cccc(F)c1
II: N#Cc1ccccc1-c1ccc(C(=O)NC[C@H]2CCN2C(=O)CCN)c(NCCc2cccc(F)c2)n1
# query: argmin of IC50 over I and II Lab note: record the label of whichever item you select. II
(II: 45 nM, I: 118 nM)

Values compiled from patent US7932270B2.
